Property: phosphorylation enrichment; scope: individual sequences
target: Hck (UniProt P08631); assay: phosphorylation enrichment, bacterial display (enrichment ratio); higher = better substrate or ligand; peptides without Tyr show the background;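 note: 11-residue human phosphosite peptides and single-mutation variants displayed on the E. coli surface, counted by deep sequencing, each peptide's frequency after selection divided by its frequency in the unselected input library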;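 note: frequency after pTyr selection over input frequency; kinase dosed for 20-30% of maximal phosphorylation in three min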
Sequence (P08631 whole entry, looked up): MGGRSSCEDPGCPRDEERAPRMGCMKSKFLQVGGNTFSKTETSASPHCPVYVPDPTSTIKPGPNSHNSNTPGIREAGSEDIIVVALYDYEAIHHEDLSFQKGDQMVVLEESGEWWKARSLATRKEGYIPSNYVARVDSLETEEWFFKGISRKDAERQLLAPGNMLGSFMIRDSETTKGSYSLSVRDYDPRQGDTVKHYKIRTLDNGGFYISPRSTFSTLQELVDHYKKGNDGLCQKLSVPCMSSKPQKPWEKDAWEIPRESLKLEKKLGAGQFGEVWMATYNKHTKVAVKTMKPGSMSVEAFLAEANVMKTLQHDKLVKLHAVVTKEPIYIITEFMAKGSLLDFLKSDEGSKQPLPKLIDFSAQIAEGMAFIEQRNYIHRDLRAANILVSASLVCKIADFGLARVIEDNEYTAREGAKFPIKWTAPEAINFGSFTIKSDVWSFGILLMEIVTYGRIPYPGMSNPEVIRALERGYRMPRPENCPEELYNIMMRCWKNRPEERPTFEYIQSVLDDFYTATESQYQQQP
Give the value as a plain number.

Past entries and their recorded results:
macromolecule_sequence	phosphorylation enrichment
KGLMPYGQPRP [SRRT_Y798_Q793K]	0.325
LEDPMYDIIRD [RP9_Y142_H137L]	7.93

Here is another sequence to look at.
Quick one: give measured phosphorylation enrichment for FKNGDYNEVMK [LCT_Y1638] 0.541

* * *

molecular target: Jak2 (UniProt O60674); assay: phosphorylation enrichment, bacterial display (enrichment ratio); higher = better substrate or ligand; peptides without Tyr show the background
Sequence (O60674 whole entry, looked up): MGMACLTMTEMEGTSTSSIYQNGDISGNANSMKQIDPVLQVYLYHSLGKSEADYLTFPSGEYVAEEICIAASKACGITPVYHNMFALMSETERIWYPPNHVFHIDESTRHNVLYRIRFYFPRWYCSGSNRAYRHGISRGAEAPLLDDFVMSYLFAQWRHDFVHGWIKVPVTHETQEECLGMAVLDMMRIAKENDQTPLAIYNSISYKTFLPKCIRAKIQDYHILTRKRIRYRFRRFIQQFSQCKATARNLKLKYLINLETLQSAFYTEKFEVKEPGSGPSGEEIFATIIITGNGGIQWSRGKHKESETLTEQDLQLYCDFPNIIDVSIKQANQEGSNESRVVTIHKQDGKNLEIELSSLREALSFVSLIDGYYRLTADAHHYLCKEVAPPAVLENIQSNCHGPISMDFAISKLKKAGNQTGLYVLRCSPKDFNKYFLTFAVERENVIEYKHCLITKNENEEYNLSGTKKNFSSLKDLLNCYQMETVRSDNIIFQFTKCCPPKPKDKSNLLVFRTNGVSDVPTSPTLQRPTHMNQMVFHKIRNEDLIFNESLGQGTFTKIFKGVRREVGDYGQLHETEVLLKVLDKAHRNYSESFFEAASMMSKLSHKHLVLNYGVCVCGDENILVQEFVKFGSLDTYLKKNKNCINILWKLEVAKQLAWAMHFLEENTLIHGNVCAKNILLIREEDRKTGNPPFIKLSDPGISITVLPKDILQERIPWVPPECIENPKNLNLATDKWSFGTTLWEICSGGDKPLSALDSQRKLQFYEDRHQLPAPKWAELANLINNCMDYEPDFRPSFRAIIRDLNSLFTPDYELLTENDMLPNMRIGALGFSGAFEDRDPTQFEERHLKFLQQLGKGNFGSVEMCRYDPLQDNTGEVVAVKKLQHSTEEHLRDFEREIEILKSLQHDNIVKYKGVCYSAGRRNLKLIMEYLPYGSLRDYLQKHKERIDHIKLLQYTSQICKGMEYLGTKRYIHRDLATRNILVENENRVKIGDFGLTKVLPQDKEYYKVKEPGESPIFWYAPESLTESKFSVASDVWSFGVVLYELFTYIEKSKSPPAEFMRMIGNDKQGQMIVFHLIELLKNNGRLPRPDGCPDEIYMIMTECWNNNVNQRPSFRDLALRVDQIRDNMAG
# reported phosphorylation enrichment; entries follow
Would you mind answering with just the numeric figure?

macromolecule_sequence	phosphorylation enrichment
AKKKMYSHKTK [AGXT_Y231_R233H]	3.12
EFGFRYELVQY [UGGT2_Y1289_Y1285F]	1.05
FTGDIYSNSNL [LZTR1_Y141_YF]	0.756
EVDETYVPKEF [ALB_Y521]	1.19
KFACSYTPVKA [FLNB_Y708_T703K_YF]	0.747

Give me measured phosphorylation enrichment, please, for this sequence: FEPDAYFDLDQ [ELP5_Y302_D303Y_YF] 1.82

Give phosphorylation enrichment for HNLYSYPTKYE [MYO3A_Y1396_H1400Y] 0.606

In one line, give reported phosphorylation enrichment of the entry KEAALYPHLPP [SQSTM1_Y383] . 1.04

Give the value of phosphorylation enrichment reported for the following: RSAGKYDVFFI [MECP2_Y120_L124F_YF] 1.38

Look up and state reported phosphorylation enrichment for MWGSDYVHLSR [MAP3K4_Y582_Q584H] 1.72

* * *

# maps each entry to its phosphorylation enrichment
target: FGFR1 (UniProt P11362); assay: phosphorylation enrichment, bacterial display (enrichment ratio); higher = better substrate or ligand; peptides without Tyr show the background
Sequence (P11362 whole entry, looked up): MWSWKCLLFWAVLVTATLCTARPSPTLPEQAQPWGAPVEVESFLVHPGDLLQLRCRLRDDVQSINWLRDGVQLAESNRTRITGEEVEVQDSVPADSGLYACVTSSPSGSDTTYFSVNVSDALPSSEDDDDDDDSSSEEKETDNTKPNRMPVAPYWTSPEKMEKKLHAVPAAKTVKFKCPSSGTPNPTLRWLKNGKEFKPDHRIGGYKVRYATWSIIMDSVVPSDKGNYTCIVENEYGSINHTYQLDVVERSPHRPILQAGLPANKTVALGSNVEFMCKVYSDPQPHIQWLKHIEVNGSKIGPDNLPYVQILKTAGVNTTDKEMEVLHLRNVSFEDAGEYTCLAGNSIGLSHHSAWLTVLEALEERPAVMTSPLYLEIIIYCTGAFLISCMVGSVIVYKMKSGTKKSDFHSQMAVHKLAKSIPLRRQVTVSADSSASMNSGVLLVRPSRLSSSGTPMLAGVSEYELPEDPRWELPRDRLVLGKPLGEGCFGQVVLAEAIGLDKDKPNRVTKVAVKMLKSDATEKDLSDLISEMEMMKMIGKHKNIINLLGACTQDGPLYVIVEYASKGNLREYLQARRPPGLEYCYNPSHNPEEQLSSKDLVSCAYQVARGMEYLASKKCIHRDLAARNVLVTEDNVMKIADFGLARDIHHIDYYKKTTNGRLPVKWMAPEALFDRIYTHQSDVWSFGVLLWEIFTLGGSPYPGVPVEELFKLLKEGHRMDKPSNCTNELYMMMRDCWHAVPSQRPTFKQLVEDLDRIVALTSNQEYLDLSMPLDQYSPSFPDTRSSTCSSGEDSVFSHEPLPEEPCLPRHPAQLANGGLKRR
Enter the number alone.

macromolecule_sequence	observation_type	result
AFSLKYEQQTQ [SYTL4_Y366]	phosphorylation enrichment	0.53

Look up and state reported phosphorylation enrichment for TKEPKYEGAGS [KIAA1210_Y1615] 0.403

Kindly indicate its recorded phosphorylation enrichment. Item: CTTIHFNYMCN [TP53_Y234_Y234F] 0.534

Could you please provide reported phosphorylation enrichment for SAQHHYESLQT [BIN1_Y157_R154Q] ? Thanks! 0.47

Output phosphorylation enrichment of TPSGNYVACGG [GNB1_Y111_A106T] 0.555

* * *

target: EPHB2 (UniProt P29323); experiment: phosphorylation enrichment, bacterial display (enrichment ratio); higher = better substrate or ligand; peptides without Tyr show the background
Sequence (P29323 whole entry, looked up): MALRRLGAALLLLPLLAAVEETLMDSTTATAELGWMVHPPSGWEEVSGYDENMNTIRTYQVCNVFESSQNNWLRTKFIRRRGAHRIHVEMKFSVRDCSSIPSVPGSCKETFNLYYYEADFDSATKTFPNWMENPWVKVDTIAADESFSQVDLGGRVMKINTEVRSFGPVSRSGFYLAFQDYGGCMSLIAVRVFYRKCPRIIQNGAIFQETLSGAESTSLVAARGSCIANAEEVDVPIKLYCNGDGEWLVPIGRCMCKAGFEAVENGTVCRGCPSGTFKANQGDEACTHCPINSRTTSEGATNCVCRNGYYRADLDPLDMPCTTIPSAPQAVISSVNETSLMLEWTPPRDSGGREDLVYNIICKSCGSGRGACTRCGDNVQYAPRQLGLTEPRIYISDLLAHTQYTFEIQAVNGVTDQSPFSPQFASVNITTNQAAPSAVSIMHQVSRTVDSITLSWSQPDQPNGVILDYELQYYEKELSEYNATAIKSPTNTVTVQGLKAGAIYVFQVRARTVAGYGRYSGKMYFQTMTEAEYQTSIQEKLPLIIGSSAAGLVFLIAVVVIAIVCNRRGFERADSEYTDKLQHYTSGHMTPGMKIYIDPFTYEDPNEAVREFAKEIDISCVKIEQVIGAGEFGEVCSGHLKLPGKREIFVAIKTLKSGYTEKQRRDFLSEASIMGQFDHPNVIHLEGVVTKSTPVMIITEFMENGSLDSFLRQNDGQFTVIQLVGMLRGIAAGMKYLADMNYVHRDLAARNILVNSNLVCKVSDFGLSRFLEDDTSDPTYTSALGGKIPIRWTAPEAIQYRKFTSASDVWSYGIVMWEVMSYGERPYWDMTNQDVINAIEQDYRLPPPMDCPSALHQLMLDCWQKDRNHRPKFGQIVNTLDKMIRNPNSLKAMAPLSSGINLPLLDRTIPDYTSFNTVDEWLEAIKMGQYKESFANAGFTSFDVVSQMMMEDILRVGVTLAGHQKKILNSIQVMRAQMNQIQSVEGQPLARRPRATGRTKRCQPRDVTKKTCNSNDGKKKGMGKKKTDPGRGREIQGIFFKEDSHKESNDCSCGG
# phosphorylation enrichment per record follows
// print number alone

Worked set:
macromolecule_sequence	phosphorylation enrichment
AKYLGYPPPEI [KDR_Y357]	0.535
SVTCTGSPALN [TP53_Y126_Y126G]	0.487
FGRTFYNQAIM [MCCC2_Y196]	0.529
SLESAYPEVSQ [TTF1_Y357_G360V]	0.792
TYAVSYLPDMS [FLNC_Y1602_T1599A]	0.785
HYPDVYAWEQL [ALX3_Y181_R183W]	0.865

Identify phosphorylation enrichment associated with the sequence EILLSYPRTGF [TGM1_Y365_L366P_YF] 0.533

Retrieve phosphorylation enrichment measured for HLELNYKEDEY [MME_Y502_Y497H] and print it. 0.535

Return phosphorylation enrichment for the following sequence: ALTRSYVREKV [CYP2C8_Y243_I244V] 0.462

Check the records and state phosphorylation enrichment for LLIVEYAKYGS [RET_Y806] 0.872

Note phosphorylation enrichment for the sequence shown: TESNNYIYKTL [FAM83B_Y637] 0.44

Report phosphorylation enrichment for NREGVYRVFAP [TGFBI_Y537_T538R] 0.376

Hello, please tell me recorded phosphorylation enrichment for this one: TTPGPYRSIFF [MPG_Y71_YF] 0.546

Give recorded phosphorylation enrichment. ASKEPYYVHCI [MYO1D_Y585_R588H] 1.21

Consider the sequence SNKLHYQLEQE [PDPR_Y110_Y109H] . State its measured phosphorylation enrichment. 0.505

Answer with reported phosphorylation enrichment of DAICFYRMENA [NPHS2_Y195_YF] 0.544

Please report the measured phosphorylation enrichment for NDDDVYRSLEE [VAV2_Y142] 0.722

Give reported phosphorylation enrichment value for WDSSGYWTPEE [PAPPA2_Y908_C903W] 0.533

Give phosphorylation enrichment for the following sequence: HRERPYGGGGG [FUS_Y526_R521H] 0.265

Identify measured phosphorylation enrichment associated with KGLMPYGQPRP [SRRT_Y798_Q793K] 0.371

Write down phosphorylation enrichment measured for item RGRSTYYWPSP [GAGE12J_Y9_R13S] 0.871

Output measured phosphorylation enrichment for this item: ISITPYPAILH [IFT80_Y588] 0.484

Give the reported phosphorylation enrichment for this sequence. EEGRVYVFHLS [ITGAE_Y549_R552H_YF] 0.573

Kindly indicate its recorded phosphorylation enrichment. Item: EEQFFYEKAIL [BCCIP_Y257_E254Q] 0.48

Name the recorded phosphorylation enrichment of the sequence listed here: ATQDNYVLEVR [PTPRZ1_Y2179_D2178N] 0.458

Give phosphorylation enrichment for the following sequence: LEEFQYIGESQ [MSH2_Y856] 1.19

Give phosphorylation enrichment for the following sequence: LIHTKYPQLLP [AHCY_Y143] 0.562

Give the reported value of phosphorylation enrichment for this record: TPSGNYVACGG [GNB1_Y111_A106T] 0.704

Fill in phosphorylation enrichment for record SARHHYESLQT [BIN1_Y157] 0.374

Cited source: the supplement of paper PMC10065799
